test system: primary human hepatic stellate cells (donor 1); test: COL1A1 mRNA fold change vs DMSO (normalised to PSMB2); higher = more COL1A1 expression, active = hit call of the paper; details: 48 h
Counter-ions that a name gives are not always drawn.
Lab note: assign the record to one of Y for active, N for inactive

As a guide, the following entries are already answered.
> print(dat)
                                   molecule                           subject.of.test  group.label
1  CN(C)Cc1c(C(=O)NCCOc2ccc(C(=O)NO)cc2)oc2ccccc12 (33.3333 µM)  primary human hepatic stellate cells (donor 1)            Y
2  CCOC(=O)C1=C(COCCN)NC(C)=C(C(=O)OC)C1c1ccccc1Cl (centres undefined) (33.3333 µM)  primary human hepatic stellate cells (donor 1)            Y
3  CN(C)CCC(c1ccc(Br)cc1)c1ccccn1 (centres undefined) [Brompheniramine maleate] (33.3333 µM)  primary human hepatic stellate cells (donor 1)            N

# input for lookup
Asked: Short answer needed: outcome of this test for CCNC(=O)c1noc(-c2cc(C(C)C)c(O)cc2O)c1-c1ccc(CN2CCOCC2)cc1 (11.1 µM) ?
Given back: N
